system: THRa homodimer (NR concentration 90 nM); test: PBM binding z-score (relative to random genomic background probes); higher = stronger binding; sequences stand for … in GC…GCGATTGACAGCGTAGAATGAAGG
recorded-metric: PBM binding z-score
Just the number.

TATCCTAGGTCATTCAGGGGCCAGTATAGAAAGC 1.57
CCGACTGGGGCATAAGATTACCATAAGCCAGCCC -0.917
CCTATTAGTTGCCCATAAGGGCAACCGAAGCTCG 1.67
CCTAGCAGTCCAGGGTCACTCAAGCATTTCGCTT 1.64

// next item, PBM binding z-score requested
Problem: What does the record list as PBM binding z-score for CCTAGAAGGCCAATCTGGGTCACTCAAGGCTTGA ?
Solution: 0.262

* * *

system: RXRa homodimer (NR concentration 180 nM); assay: PBM binding z-score (relative to random genomic background probes); higher = stronger binding; sequences stand for … in GC…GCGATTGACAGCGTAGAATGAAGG
Categories are assigned from the measured PBM binding z-score using these intervals: label 0 (below 1), label 1 (1 to below 4), label 2 (4 or more)

The examples below pair each entry with its known result.
TCAGACAGGTGAAGGTAAGTCAGGTACGCAGTCG label 0
ACTATTAGTTGACTTAGAGCAACCGATACGACGC label 0
TTACCAAGGTTAAGGTCGTTGATCCCTCTGTAGA label 1
CCGTGTAGGTTATGGGGCATTCAGGCAACGGTGA label 0

Please find the next sequence below.
Problem: Class label required: ATATGTAGGTTAAGAGTCATTCAGGTTGGTTCGC
Solution: label 1

* * *

# PBM binding z-score listing for each entry below
tested on: PPARg:RXRa (NR concentration 180 nM, RXRa partner concentration 90 nM); assay: PBM binding z-score (relative to random genomic background probes); higher = stronger binding; sequences stand for … in GC…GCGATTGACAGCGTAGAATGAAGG
Just the number.

TCAGACAGGTGAAGGTTACTCAGGTACGCAGTCG 1.06
TGATATAGGTAAATGCTAGGTGAAAGTCCGATCT 1.45

// next item, PBM binding z-score requested
Problem: What does the record list as PBM binding z-score for TCATATAGCTAAAAGGTGAAAGTCGGTGTGGTAA ?
Solution: 0.863

* * *

test system: PPARg:RXRa 90nM:30nM, anti-RXR (NR concentration 90 nM, RXRa partner concentration 30 nM); experiment: PBM binding z-score (relative to random genomic background probes); higher = stronger binding; sequences stand for … in GC…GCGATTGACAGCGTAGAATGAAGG
recorded-metric: PBM binding z-score
Just the number.

Solved cases (8 shown):
TGTCAAAGTTCCAAGGTAACGTAAGTATCCACAC 1.04
ACCTACGGGTCAACGAGGTTATAGCACGCGTATA 3.68
GATAGAGGGTCAAGGCCAGAGTACGCGTATTGAT 4.04
ATCTCTAGGTAAACTTCAGTGAAAGATCGATAGA 0.45
GGACCGAGGGCAAGTTGATAGCAGAGTTTGATGG -0.0881
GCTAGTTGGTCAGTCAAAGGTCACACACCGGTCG 5.9
TGAATGAGGTTATAAGATCAGGGTACGTTGCAAA 1.23
CCTAGGAGGACAGAAGGTCAGAGCTGTCCGCTTT 1.7

Problem: What does the record list as PBM binding z-score for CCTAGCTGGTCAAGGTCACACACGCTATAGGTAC ?
Solution: 1.94

Problem: Another sequence: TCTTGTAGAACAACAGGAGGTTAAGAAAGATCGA
Solution: 2.15

Problem: Another sequence: ACTCGGAGGACACAGGTCAGAGCTACGCCAGTGA
Solution: 2.71

Problem: Another sequence: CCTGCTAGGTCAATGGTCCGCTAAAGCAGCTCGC
Solution: 1.87

Problem: Another sequence: ATATGTAGGTTATCGGGTCATCCAGTTTGCGCAT
Solution: 5.79

Problem: Another sequence: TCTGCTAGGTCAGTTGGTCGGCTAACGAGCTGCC
Solution: 1.7
